MEASURED ON: T1, IL-18 receptors on HEK-Blue IL-18 reporter cells (UniProt Q13478 19-541; O95256 20-599, limits assumed)
T1 sequence (looked up) 1: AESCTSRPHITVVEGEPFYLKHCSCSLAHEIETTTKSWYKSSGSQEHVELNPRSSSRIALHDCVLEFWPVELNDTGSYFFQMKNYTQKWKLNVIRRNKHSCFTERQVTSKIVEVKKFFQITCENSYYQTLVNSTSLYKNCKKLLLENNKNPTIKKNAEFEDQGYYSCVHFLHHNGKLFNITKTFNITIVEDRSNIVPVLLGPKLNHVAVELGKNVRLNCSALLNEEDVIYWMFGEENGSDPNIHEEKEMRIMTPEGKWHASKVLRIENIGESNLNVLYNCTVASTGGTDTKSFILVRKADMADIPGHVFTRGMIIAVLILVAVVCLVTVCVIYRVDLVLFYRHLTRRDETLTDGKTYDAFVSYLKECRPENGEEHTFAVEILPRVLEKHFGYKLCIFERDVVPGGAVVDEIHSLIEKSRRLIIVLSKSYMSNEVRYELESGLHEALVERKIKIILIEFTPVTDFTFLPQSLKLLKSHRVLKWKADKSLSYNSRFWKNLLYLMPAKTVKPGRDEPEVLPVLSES
T1 sequence (looked up) 2: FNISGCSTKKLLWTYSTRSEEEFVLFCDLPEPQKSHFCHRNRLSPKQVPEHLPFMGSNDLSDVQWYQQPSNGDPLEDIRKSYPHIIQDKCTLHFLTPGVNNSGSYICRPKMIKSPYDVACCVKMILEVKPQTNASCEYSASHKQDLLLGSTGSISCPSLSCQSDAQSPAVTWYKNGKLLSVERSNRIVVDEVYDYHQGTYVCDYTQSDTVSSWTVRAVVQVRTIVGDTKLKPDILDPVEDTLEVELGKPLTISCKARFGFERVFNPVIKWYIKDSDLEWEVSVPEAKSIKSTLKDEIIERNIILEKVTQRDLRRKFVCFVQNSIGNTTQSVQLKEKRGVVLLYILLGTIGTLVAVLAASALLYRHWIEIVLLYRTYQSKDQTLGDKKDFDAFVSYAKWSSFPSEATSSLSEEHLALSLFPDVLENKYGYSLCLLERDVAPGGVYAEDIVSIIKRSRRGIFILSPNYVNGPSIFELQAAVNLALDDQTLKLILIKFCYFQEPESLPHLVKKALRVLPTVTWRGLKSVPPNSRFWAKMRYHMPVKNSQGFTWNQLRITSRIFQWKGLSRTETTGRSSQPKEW
METHOD: cell-based or functional assay; note: unit not given here
RECORDED METRIC: Activity, No BP, DF-100000
Reply briefly: the number, and no unit.

[[record]]
binder = "IL-18 variant G3P, E6I, K53N, D54W, S55P, T63S, N91L, R104Q (ligand) YFPKLISKLSVIRNLNDQVLFIDQGNRPLFEDMTDSDMRDNAPRTIFIISMYNWPQPRGMAVSISVKSEKISTLSSENKIISFKEMNPPDLIKDTKSDIIFFQQSVPGHDNKMQFESSSYEGYFLASEKERDLFKLILKKEDELGDRSIMFTVQNED"
val = 0.07

[[record]]
binder = "IL-18 variant G3P, E6H, N91L (ligand) YFPKLHSKLSVIRNLNDQVLFIDQGNRPLFEDMTDSDMRDNAPRTIFIISMYKDSQPRGMAVTISVKSEKISTLSSENKIISFKEMNPPDLIKDTKSDIIFFQRSVPGHDNKMQFESSSYEGYFLASEKERDLFKLILKKEDELGDRSIMFTVQNED"
val = 1.45


# evaluate next
Task item: Dear colleague, I am looking for the recorded Activity, No BP, DF-100000 of the following binder: IL-18 variant G3L, E6Y, D54T, T63S, N91Y, R104Q (ligand) YFLKLYSKLSVIRNLNDQVLFIDQGNRPLFEDMTDSDMRDNAPRTIFIISMYKTSQPRGMAVSISVKSEKISTLSSENKIISFKEMNPPDYIKDTKSDIIFFQQSVPGHDNKMQFESSSYEGYFLASEKERDLFKLILKKEDELGDRSIMFTVQNED
Reply: 2.14
